- System: CP237
- Measurement Protocol: qHTS profiling for inhibitors of Plasmodium falciparum proliferation (AID 504749); note: nearly all actives have a fitted effect of over 60% in size
- Condition Label: P. falciparum in erythrocytes, SYBR Green DNA, 72 h; series mostly up to 28.7 µM
Results filed as inconclusive are left out. Activity calls are given as the source filed them. Calls come from the whole dose curve; as a rule, active = well fitted inhibition curve with a large enough effect; inconclusive = small, poorly fitted or top-dose-only effect; inactive = flat fitted curve, though single readings scatter.
Outcome codes: 1 (active), -1 (inactive)

{"columns": ["Molecule", "Group Label"],
 "data": [
  ["O=P1(N(CCCl)CCCl)NCCCO1 (centres undefined)", -1],
  ["Nc1ccccc1C(=O)O", -1],
  ["CN1CCC(O)(c2ccc(F)cc2)C(C(=O)c2ccc(F)cc2)C1 (centres undefined)", -1],
  ["CC(C)=CC1C(C(=O)OCN2C(=O)C3=C(CCCC3)C2=O)C1(C)C (centres undefined)", -1],
  ["CC(C)c1cccc(C(C)C)c1O", -1],
  ["CC(C)(C)NCC(O)c1cc(Cl)c(N)c(C(F)(F)F)c1 (centres undefined)", 1],
  ["CN1C(=O)C(O)N=C(c2ccccc2)c2cc(Cl)ccc21 (centres undefined)", -1],
  ["NC(=O)CS(=O)C(c1ccccc1)c1ccccc1 (centres undefined)", -1],
  ["Clc1ccc2c(c1)C(c1ccccc1)=NCc1nncn1-2", -1],
  ["CN1C(=O)COc2c(C(=O)NC3CN4CCC3CC4)cc(Cl)cc21 (centres undefined)", -1],
  ["COP(=S)(OC)Oc1ccc(SC)c(C)c1", -1],
  ["CCCCCCC(=O)CCCCCC/C=C/C[C@@H](O)[C@H](O)[C@@](N)(CO)C(=O)O", -1],
  ["CC(C)NC(C)C", -1],
  ["Cc1ncsc1CCCl", -1],
  ["C=CCN1C[C@H](C)N([C@H](c2ccc(C(=O)N(CC)CC)cc2)c2cccc(OC)c2)C[C@H]1C", 1],
  ["O=C1CN=C(c2ccccc2)c2cc([N+](=O)[O-])ccc2N1", -1],
  ["Clc1cccc(SC2CCNCC2)n1", -1],
  ["CCC1(CC)C(=O)C=CNC1=O", -1],
  ["O=C(Nc1ccc(Br)cc1)c1cc(Br)cc(Br)c1O", -1],
  ["COc1ccc2c(c1)C13CCCC[C@@H]1C(C2)N(C)CC3 (some centres undefined)", -1],
  ["Cc1nnc2n1-c1ccc(Cl)cc1C(c1ccccc1)=NC2", -1],
  ["CN1C(=O)CCS(=O)(=O)C1c1ccc(Cl)cc1 (centres undefined)", -1],
  ["CN1C[C@H](C(=O)N[C@]2(C)O[C@@]3(O)[C@@H]4CCCN4C(=O)[C@H](Cc4ccccc4)N3C2=O)C=C2c3cccc4[nH]cc(c34)C[C@H]21", 1],
  ["O=C1c2ccccc2C(=O)c2ccccc21", -1]
]}

---

- System: ECU
- Measurement Protocol: qHTS profiling for inhibitors of Plasmodium falciparum proliferation (AID 504749); note: nearly all actives have a fitted effect of over 60% in size
- Condition Label: P. falciparum in erythrocytes, SYBR Green DNA, 72 h; series mostly up to 28.7 µM
Results filed as inconclusive are left out. Activity calls are given as the source filed them. Calls come from the whole dose curve; as a rule, active = well fitted inhibition curve with a large enough effect; inconclusive = small, poorly fitted or top-dose-only effect; inactive = flat fitted curve, though single readings scatter.
Outcome codes: active, inactive

{"columns": ["Compound", "Group Label"],
 "data": [
  ["COP(=S)(OC)Oc1ccc(S(=O)(=O)N(C)C)cc1", "inactive"],
  ["O=c1[nH]oc2c1CCNC2", "inactive"],
  ["O=C1OC(c2ccc(O)c(S(=O)(=O)O)c2)(c2ccc(O)c(S(=O)(=O)O)c2)c2c(Br)c(Br)c(Br)c(Br)c21", "inactive"],
  ["CCOP(=S)(OCC)Oc1ccc2c(C)c(Cl)c(=O)oc2c1", "inactive"],
  ["COc1c2c(cc3c1OCO3)CCN(C)C2", "inactive"],
  ["CN1C[C@H](C(=O)N[C@]2(C)O[C@@]3(O)[C@@H]4CCCN4C(=O)[C@H](Cc4ccccc4)N3C2=O)C=C2c3cccc4[nH]cc(c34)C[C@H]21", "active"],
  ["NNc1ccccc1", "inactive"],
  ["CN1C(=O)COc2c(C(=O)NC3CN4CCC3CC4)cc(Cl)cc21 (stereo unspecified)", "inactive"],
  ["O=C(Nc1ccc(Br)cc1)c1cc(Br)cc(Br)c1O", "inactive"],
  ["C[C@]12CC[C@@H]3c4ccc(OC(=O)N(CCCl)CCCl)cc4CC[C@H]3[C@@H]1CC[C@@H]2O", "inactive"],
  ["Nc1nc(N)nc(NC2CC2)n1", "inactive"]
]}

# credit: PubChem BioAssay (NCATS)
